# Measured Target: UniProt Q8ILY1
# Experiment Description: Fluorescence-based high-throughput DNA polymerase assay (molecular beacon), primary screen and dose-response;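 for % inhibition apPOL 180': test concentration in µM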
# Format: biochemical
# Condition Notes: DRC-1; 180'; concentration 40
Task for the reader: assign each of the following compounds its reported % inhibition apPOL 180'.
Please reply with the bare figure in % and do not write the unit itself.

Please look up its % inhibition apPOL 180': "O=C(Nc1ncc([N+](=O)[O-])s1)c1ccc2c(c1)C(=O)N(N1C(=O)c3ccccc3C1=O)C2=O"
40.1737

Please look up its % inhibition apPOL 180': "COc1ccc(CNC(=O)Cn2nc3c(c2NC(=O)Cc2cccs2)CSC3)cc1"
40.1483

Please look up its % inhibition apPOL 180': "Cc1ccc(C)c(CSc2nc(C3CCCCC3)c(C#N)c(=O)[nH]2)c1"
85.5131

Please look up its % inhibition apPOL 180': "Cc1cc(C)c2c(O)nc(SCC(=O)c3ccc(O)c(O)c3)nc2n1"
86.2556

Please look up its % inhibition apPOL 180': "Cc1ccc(C)n1-c1ccc(C(=O)NNC(=O)c2ccc3nccnc3c2)cc1"
57.2023

Please look up its % inhibition apPOL 180': "O=C1CCCC2=C1C(c1ccccn1)C1=C(CCCC1=O)O2"
53.3605

---

# Measured Target: P. falciparum apicoplast DNA polymerase (Pf-apPOL) (Plasmodium falciparum)
# Sequence (Q8ILY1 entry or part of it): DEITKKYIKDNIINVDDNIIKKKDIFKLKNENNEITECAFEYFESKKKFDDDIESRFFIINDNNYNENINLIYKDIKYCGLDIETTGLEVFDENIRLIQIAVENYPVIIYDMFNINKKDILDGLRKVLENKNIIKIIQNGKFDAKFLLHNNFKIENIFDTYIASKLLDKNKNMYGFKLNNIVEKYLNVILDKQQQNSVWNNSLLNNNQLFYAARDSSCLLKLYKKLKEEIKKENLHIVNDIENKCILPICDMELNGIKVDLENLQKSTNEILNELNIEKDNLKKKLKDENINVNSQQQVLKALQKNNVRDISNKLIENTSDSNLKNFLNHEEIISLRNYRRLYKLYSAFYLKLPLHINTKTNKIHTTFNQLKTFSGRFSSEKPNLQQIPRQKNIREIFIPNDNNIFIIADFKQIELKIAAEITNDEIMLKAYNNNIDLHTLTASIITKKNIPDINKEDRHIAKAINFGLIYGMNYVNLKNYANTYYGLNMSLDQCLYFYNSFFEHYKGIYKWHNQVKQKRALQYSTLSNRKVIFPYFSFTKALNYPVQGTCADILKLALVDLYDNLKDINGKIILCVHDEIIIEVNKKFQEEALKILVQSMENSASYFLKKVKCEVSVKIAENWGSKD
# Experiment Description: Fluorescence-based high-throughput DNA polymerase assay (molecular beacon), primary screen and dose-response
# Type: biochemical
# Condition Notes: DRC-2; 5'; concentration 5 (unit not given)
# Description: The HT assay employs a molecular beacon, a stem-loop DNA template with a Cy3 dye and the Black Hole Quencher on the 3′ and 5′ ends of the DNA, respectively. Pf-apPOL concentration is based on a calculated absorptivity of ε280 = 56750 M^−1 cm^−1. […] To identify apPOL inhibitors we utilised our previously developed high-throughput DNA polymerase assay. […] The assay accurately recapitulates the kinetic behaviour of apPOL, as measured through more conventional low-throughput gel-based assays. […]
Hi, to clarify the labels: t covers % inhibition Apo pol 5' from 20% upward, f covers anything below 20%.

For this compound, is measured % inhibition Apo pol 5' 20% or higher? "Cc1ccc(C)c(CSc2nc(C3CCCCC3)c(C#N)c(=O)[nH]2)c1"
f

For this compound, is measured % inhibition Apo pol 5' 20% or higher? CCCCSc1nnc2c(n1)OC(c1ccc([N+](=O)[O-])o1)Nc1ccccc1-2 (centres unmarked)
t

For this compound, is measured % inhibition Apo pol 5' 20% or higher? "Nc1c(S(=O)(=O)O)cc(Nc2ccccc2)c2c1C(=O)c1ccccc1C2=O"
f

For this compound, is measured % inhibition Apo pol 5' 20% or higher? "O=[N+]([O-])/C=C/c1ccc(-c2ccc(Br)cc2)o1"
t

For this compound, is measured % inhibition Apo pol 5' 20% or higher? "COCCN(CCOC)Cc1c(O)ccc2c1OC(=Cc1cc(Br)ccc1OC)C2=O"
f

---

# Measured Target: P. falciparum apicoplast DNA polymerase (Pf-apPOL) (Plasmodium falciparum)
# Experiment Description: Fluorescence-based high-throughput DNA polymerase assay (molecular beacon), primary screen and dose-response
# Type: biochemical
# Condition Notes: DRC-2; read at 5'; concentration 80
Attribute Measured: % inhibition Apo pol 5' 80 (%)
Please reply with the bare figure in % and do not write the unit itself.

Lab note: need % inhibition Apo pol 5' 80 for "Nc1cc(Oc2ccc(O)c(N)c2)ccc1O" on P. falciparum apicoplast DNA polymerase (Pf-apPOL) (Plasmodium falciparum), anyone have it?
30

Lab note: need % inhibition Apo pol 5' 80 for "COc1ccccc1CC(=O)N1CCc2c(nc3cc(-c4ccccc4Cl)[nH]n3c2=O)C1" on P. falciparum apicoplast DNA polymerase (Pf-apPOL) (Plasmodium falciparum), anyone have it?
41

Lab note: need % inhibition Apo pol 5' 80 for "Cn1nc(-c2nnc(-c3ccccc3F)o2)c2c1CCN(C(=O)c1ccccc1Cl)C2" on P. falciparum apicoplast DNA polymerase (Pf-apPOL) (Plasmodium falciparum), anyone have it?
39
